target: α6β1γ2 GABAA receptor (Homo sapiens, UniProt P18505+Q16445); assay: FLIPR modulation of GABA response in cells expressing GABAA receptor subtype; conditions: in presence of GABA, — = value not measurable
Sequence (Q16445 20-453): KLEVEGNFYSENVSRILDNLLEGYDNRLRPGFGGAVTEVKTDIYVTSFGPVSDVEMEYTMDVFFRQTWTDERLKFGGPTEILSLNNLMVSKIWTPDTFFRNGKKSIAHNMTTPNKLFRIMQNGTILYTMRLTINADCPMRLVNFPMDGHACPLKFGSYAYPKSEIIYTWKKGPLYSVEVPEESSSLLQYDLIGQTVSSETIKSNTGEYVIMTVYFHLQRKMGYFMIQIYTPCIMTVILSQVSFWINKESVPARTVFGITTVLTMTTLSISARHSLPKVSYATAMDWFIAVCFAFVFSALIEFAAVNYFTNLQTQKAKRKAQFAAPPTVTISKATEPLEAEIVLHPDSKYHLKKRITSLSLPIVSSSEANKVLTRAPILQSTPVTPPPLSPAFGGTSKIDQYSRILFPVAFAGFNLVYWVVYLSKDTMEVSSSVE
Sequence (P18505 26-474): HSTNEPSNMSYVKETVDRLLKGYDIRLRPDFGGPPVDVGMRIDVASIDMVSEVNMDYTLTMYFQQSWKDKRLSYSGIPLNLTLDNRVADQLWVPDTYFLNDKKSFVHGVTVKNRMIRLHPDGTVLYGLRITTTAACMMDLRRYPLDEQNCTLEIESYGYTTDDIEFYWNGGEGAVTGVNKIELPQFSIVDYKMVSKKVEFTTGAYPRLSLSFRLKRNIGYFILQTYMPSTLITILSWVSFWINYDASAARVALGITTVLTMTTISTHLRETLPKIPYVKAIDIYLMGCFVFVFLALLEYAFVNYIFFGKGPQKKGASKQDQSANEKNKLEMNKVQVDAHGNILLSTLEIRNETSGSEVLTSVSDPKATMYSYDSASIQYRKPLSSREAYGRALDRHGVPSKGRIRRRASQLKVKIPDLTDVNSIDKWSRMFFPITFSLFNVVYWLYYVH
Sequence (P18507 40-475 partner): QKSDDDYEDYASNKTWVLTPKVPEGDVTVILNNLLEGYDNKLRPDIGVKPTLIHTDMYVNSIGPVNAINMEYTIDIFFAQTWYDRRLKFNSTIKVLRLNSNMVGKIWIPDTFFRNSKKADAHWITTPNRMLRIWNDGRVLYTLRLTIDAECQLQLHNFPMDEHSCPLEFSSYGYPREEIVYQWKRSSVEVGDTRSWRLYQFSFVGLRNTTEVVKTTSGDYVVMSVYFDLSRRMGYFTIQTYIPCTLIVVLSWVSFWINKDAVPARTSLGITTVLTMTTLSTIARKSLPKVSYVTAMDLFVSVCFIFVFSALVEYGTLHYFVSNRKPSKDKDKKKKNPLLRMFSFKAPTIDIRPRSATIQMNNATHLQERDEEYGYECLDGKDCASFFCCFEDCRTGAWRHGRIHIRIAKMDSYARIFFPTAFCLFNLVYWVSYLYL
PROPERTY NAME: EC50 (nM)
Just the number please, in nM, no unit attached.

Short answer for C[C@@]1(O)CC[C@@]2(C)[C@@H](CC[C@@H]3[C@@H]2CC[C@]2(C)[C@@H](C(=O)Cn4cc(C#N)cn4)CC[C@@H]32)C1 [CV-10155] : EC50 was 359
